# key: entry, value: polymerase ribozyme fitness (log ratio)
B1: TPR t1 (parent)
chain: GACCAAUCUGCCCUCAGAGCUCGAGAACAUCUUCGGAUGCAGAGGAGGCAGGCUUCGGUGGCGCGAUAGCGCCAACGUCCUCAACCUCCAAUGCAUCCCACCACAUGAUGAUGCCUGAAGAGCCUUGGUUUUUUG

variants of: B1; assay: polymerase ribozyme fitness, log enrichment relative to wild type (log ratio); higher = more active; in vitro selection for triplet polymerase activity

Residue sequence: GACCAAUCUGCCCUCAGAGCUCGAGAACAUCUUCGGAUGCAGAGGAGGCAGGCUUCGGUGGCGCGAUAGCGCUAACGUCCUCAACCUCCAAUGCAUCCCACCACCUGAUGAUGCCUGAUGAGCCUUGAUUUUUUG
polymerase ribozyme fitness (log ratio): -3.98
--
Residue sequence: GACCAAUCUGCCCUCAGAGCUCGAGAACAUCUUCGGAUGCAUAGGAGACAGGCUUCGGUGGCGCGAUAGCGCCAACGUCCUCAACCUCCAAUGCAUCCCACCAUAUGAUGAUGCCUGAAGAGCCUUGGUUUUUUG
polymerase ribozyme fitness (log ratio): -0.902
--
Residue sequence: GACCAAUCUGCCCUCAGAGCACGAGAACAUCUUCGGAUGCAGAGGAGGCCGGCUUCGGUGGCGCGAUAGCGCCAACGUCCUCAACCUCCAAUGCAUCCCACCACAUGAUGAUGCCUGAAGAGCCUUGGUUUUUUG
polymerase ribozyme fitness (log ratio): -0.532
--
Residue sequence: GACCAAUCUGCCCUCAGAGCUCGAGAACAUCUUCGGAUGCAGAGGAGGGAGGCUUCAGUGGCGCGAUAGCGCCAACGUCCUCAACCUCCAAUGCAUCCCACCACAUGAAGAUGCCUGAAGAGCCUUGGUUUUUUG
polymerase ribozyme fitness (log ratio): -6.29
--
Residue sequence: GACCAAUCUGCCCUCAGAGCUCGAGAACAUCUUCGGAUGCAGAGGAGGCAGGCUUCGGUCGCGCGAUAGCGCCAACGUCCUCAACCUCCAAUGCAUCCCACUACAUGAUGAUGCCUGAAGAGCCUUGAUUUUUUG
polymerase ribozyme fitness (log ratio): -4.97
--
Residue sequence: GACCAAUCUGCCCUCAGAGCUCGAGAACAUCUUCGGAUGCACAUGAGGCAGGCUUCGGUGGCGCGAUAGCGCCCACGUCCUCAACCUCCAAUGCAUCCAACCACAUGAUGAUGCCUGAAGAGGCUUGGUUUUUUG
polymerase ribozyme fitness (log ratio): -6.31
--
Residue sequence: GACCAAUCUGCCCUCAGAGCUCGAGAAUAUCUUCGGAUGCAGAGGAGGCAGUCUUCGGUGGCGCGAUAGCGCGAACGGCCUCAACCUCCAAUGCAUCCCACCACAUGAUGAUGCCUGAAUAGCCUUGGUUUUUUG
polymerase ribozyme fitness (log ratio): -4.03
--
Residue sequence: GCCCAAUCUGCCCUCAGAGCUCGAGAACAUCUUCGGAUGCAUAGGAGGCAGGCUUCGGUGGCGCGAUAGCGCCAACGUCCUCAACCUCCAAUGCAUCCCACCACAUGAUGAUGCCUGAAGAGCCUUGGUUUUUUG
polymerase ribozyme fitness (log ratio): -3.31
--
Residue sequence: GACCAAUCUGCCCUCAGAGCUCGAGAACAUCUUCGGAUGCACAGGAGGCCGGCUUCGGUGGCGCGAUAGCGCCAACGUCCUCAACCUCCAAUGCAUCCCACCACGUGAUGAUGCCUGAAGAGCCUUGGUUUUUUG
polymerase ribozyme fitness (log ratio): -5.66
--
Residue sequence: GACCAAUCUGCCCUCAGAGCUCGAGAACAUCUUCGGAUGCAGAGGAGGCAGGCUUCGGUGGCGCGAUAGCGCCAACGUCCUCAACCUCCAAUGCAUCCCACCCAAUGAUGAUGCCUGAAGAGCCUUGGUUUUUUG
polymerase ribozyme fitness (log ratio): -2.67
--
Residue sequence: GACCAAUCUGCCCGCAGAGCUCGAGAACAUCUUCGGAUGCAGAGGAGGCAGGCUUCGGUGGCACGAUAGCGCCAACGUCCUCAACCUCCAAUGCAUCCCACCACAUGAUGAUGCCUGAAGAGCCUUGGUUUUUUG
polymerase ribozyme fitness (log ratio): -2.49
--
Residue sequence: GACCAAUCUGCCAUCAGAGCUCGAGAACAUCUUCGGAUGCAGAGGAGGCAGGCUUCGGUGGCUCGAUAGCGCCAACGUCCUCAACCUCCAAUGCAUCCCACCACAUGAUGACGCCUGAAGAGCCUUGGUUUUUUG
polymerase ribozyme fitness (log ratio): -1.77
--
Residue sequence: GACCAAUUUGCCCUCAGAGCUCGAGAACAUCUUCGGAUGCAGAGGAGGCAGGCUUCGGUGGCGCGAUAGCGCUAACGUCCUCAACCUCCAAUGCAUCCCACCACAUGAUGAUGCCUGAAAAGCCUUGGUUUUUUG
polymerase ribozyme fitness (log ratio): 1.89
--
Residue sequence: GACCAAUCUGCCCUCAGAGCUCGAGAACAUCUUAGGAUGCAGAGGAGUCAGGCUUCGGUGCCGCGAUAGCGGCAACGUCCUCAACCUCCAAUGGAUCCCACCACAUGAUGAUGCCUGAGGAGCCUUGGUUUUCUG
polymerase ribozyme fitness (log ratio): -3.16
--
Residue sequence: GACCAAUCUGACCUCAGAGCUCGAGAACAUCUUCGGAUGCAGAGGAGGCAGGCUUCGGUGGCGCGAUAGCGCCAACGUCCUCAACCUCCAAUGCAUCCCACCACCUGAUGAUGCCUGAAGAGCCUUGGUUUUUUG
polymerase ribozyme fitness (log ratio): -3.07
--
Residue sequence: GACCCAUCUGCCCUCAGAGCUAGAGAACAUCUUCGGAUGCAGAGGAGGCAGGCUUCGGUGGCGCGAUAGCGCCAACGUCCUCAACCUCCAAUGCAUCCCACCACAUGAUGAUGCCUGAAGAGCCUUGGUUUUUUG
polymerase ribozyme fitness (log ratio): -4.57
--
Residue sequence: GACCAAUCUGCCCUCAGAGCUCGAGAACAUCUUCGGAUGCAGAGGAGGCAGGCUUCGGUGGCGCGAUAGCGCCAACGUCCUCAACCUCCAAUGCAUCCCAACACAUGAUGAUACCUGAAGAGCCUUGGUUUUUUG
polymerase ribozyme fitness (log ratio): -2.4
--
Residue sequence: GACCAAUCUGCCCUCAGAGCUCGAGAACAUCUUCUGAUGCAGAGGAGGCAGGCUUCGGUGGCGCGAUAUCGCCAACGUCCUCAACCUCCAAUGCAUCCCACCACAUGAUGAUGCCUGAAGAGAAUUGGUUUUUUG
polymerase ribozyme fitness (log ratio): -1
--
Residue sequence: GACCAAUCUGCCCUCAGAGCUCGAGAACAUCUUCGGAUGCAGAGGAGGCAGGCUUCGGUGGCGCGAUAGCGCCAACGUGCUCAACCUCCAAUGCAUCCCACCACAUGAUGAUGCCUGAAGAGCGUUGGUUUUUUG
polymerase ribozyme fitness (log ratio): -0.0918
--
Residue sequence: GACCAAUCUGCCCUCAGAGCUCGAGAAUAUCUUCGGAUGCAGAGGAGGCAGGCUUCGGUGGCCCGAUAGCGCCAACGUCCUCAACCUCCAAUGCAUCCCACCACAUGAUGAUGCCUGAAGAGCCUUGGUUUUUUG
polymerase ribozyme fitness (log ratio): -3.08
--
Residue sequence: GACCAAUCUGGCCUCAGAGCUCGAGAACAUCUUCGGAAGCAGAGUAGGCCGGCUUCGGUGGCGCGAUAGCGCCAACGUCCUCAACCUCCAAUGCAUCCCACCACAUGAUGAUGCCUGAAGAGCCUUGGUUUUUUG
polymerase ribozyme fitness (log ratio): -2.51
--
Residue sequence: GACCAAUCUGCCCUCAGAGCUCGAGAACAUCUUCGGAUGCAGAGGAGUCAGGCUUCGGUGGCGCGAUAGCGCCAACGUCCUCAACCUACAAUGCAUCCCACCACAUGAUGAUGCCUGAAGAGCCUUGGUUUUUUG
polymerase ribozyme fitness (log ratio): -0.373
